tested on: Mycosphaerella graminicola; Anamorph: Septoria tritici; assay: Leaf Blotch of Wheat (SEPTTR) disease control; type: in vivo; details: Zymoseptoria tritici, 24 h, 1 Day Protectant, rate 100 ppm; read-out: SEPTTR 1 DP disease control
value kind: pest or weed control at 100 ppm

## Input # value lookup — system Mycosphaerella graminicola; Anamorph: Septoria tritici, readout pest or weed control at 100 ppm, item COc1ccc(C[C@H]2CCC[C@H](NC(=O)c3nccc(OC)c3OCOC(C)=O)C(=O)O[C@@H](C)[C@@H]2Oc2ccccc2)cc1 [Compound F114]
## Output 80 to 100%

## Input Recall the recorded pest or weed control at 100 ppm for CCOCC(=O)OCOc1c(OC)ccnc1C(=O)N[C@H]1CCC[C@H](Cc2ccc(OC)cc2)[C@@H](OCC2CC2)[C@H](C)OC1=O [Compound F177] with Mycosphaerella graminicola; Anamorph: Septoria tritici and state it.
## Output 80 to 100%

## Input Give pest or weed control at 100 ppm (Mycosphaerella graminicola; Anamorph: Septoria tritici) of the following compound: COc1ccnc(C(=O)N[C@H]2CCC[C@H](Cc3ccc(C)cc3)[C@@H](OCC3CC3)[C@H](C)OC2=O)c1OCOC(C)=O [Compound F127]
## Output 80 to 100%

## Input What reported pest or weed control at 100 ppm corresponds to COc1ccnc(C(=O)N[C@H]2CCC[C@H](CCOCC3CC3)[C@@H](OCC3CC3)[C@H](C)OC2=O)c1O [Compound F54] on Mycosphaerella graminicola; Anamorph: Septoria tritici?
## Output 0 to 80%

## Input Write down the reported pest or weed control at 100 ppm of CCOCC(=O)OCOc1c(OC)ccnc1C(=O)N[C@H]1CCC[C@H](CCC(C)C)[C@@H](OCCCC(F)(F)F)[C@H](C)OC1=O [Compound F162] , test system: Mycosphaerella graminicola; Anamorph: Septoria tritici.
## Output 80 to 100%

## Input Form field: pest or weed control at 100 ppm recorded for COc1ccnc(C(=O)N[C@H]2CCC[C@H](Cc3ccccc3)[C@@H](OCC3CC3)[C@H](C)OC2=O)c1OCOC(=O)C(C)C [Compound F152] with Mycosphaerella graminicola; Anamorph: Septoria tritici (enter value)
## Output 80 to 100%

## Input Short answer please: pest or weed control at 100 ppm, Mycosphaerella graminicola; Anamorph: Septoria tritici, entry COc1ccnc(C(=O)N[C@H]2CCC[C@H](Cc3ccc(F)cc3F)[C@@H](OCc3ccccc3)[C@H](C)OC2=O)c1OCOC(C)=O [Compound F137]
## Output 80 to 100%

## Input State its pest or weed control at 100 ppm on Mycosphaerella graminicola; Anamorph: Septoria tritici: COc1ccnc(C(=O)N[C@H]2CCC[C@H](C)[C@@H](Oc3ccccc3)[C@H](C)OC2=O)c1OCOC(C)=O [Compound F124]
## Output 80 to 100%

## Input Write down the reported pest or weed control at 100 ppm of COc1ccnc(C(=O)N[C@H]2CCC[C@H](CCC(C)C)[C@@H](OCCCC(F)(F)F)[C@H](C)OC2=O)c1OCOC(=O)C(C)C [Compound F150] , test system: Mycosphaerella graminicola; Anamorph: Septoria tritici.
## Output 80 to 100%

## Input Enter reported pest or weed control at 100 ppm observed with Mycosphaerella graminicola; Anamorph: Septoria tritici for COc1ccnc(C(=O)N[C@H]2CCC[C@H](C)[C@@H](OCc3ccccc3)[C@H](C)OC2=O)c1OC(C)=O [Compound F77]
## Output 80 to 100%

## Input Recorded pest or weed control at 100 ppm for COc1ccnc(C(=O)N[C@H]2CCC[C@H](CCC(C)C)[C@@H](OC)[C@H](C)OC2=O)c1OCOC(C)=O [Compound F95] with Mycosphaerella graminicola; Anamorph: Septoria tritici, please?
## Output 80 to 100%

## Input Please provide the recorded pest or weed control at 100 ppm for COc1ccnc(C(=O)N[C@H]2CCC[C@H](CCSC)[C@@H](OCC(C)C)[C@H](C)OC2=O)c1OCOC(C)=O [Compound F131] , tested on Mycosphaerella graminicola; Anamorph: Septoria tritici.
## Output 80 to 100%

## Input What value of pest or weed control at 100 ppm on Mycosphaerella graminicola; Anamorph: Septoria tritici does CCOCC(=O)OCOc1c(OC)ccnc1C(=O)N[C@H]1CCC[C@H](CC2CCCC2)[C@@H](Oc2ccccc2)[C@H](C)OC1=O [Compound F176] have?
## Output 80 to 100%

## Input Entry CC[C@H]1CCC[C@H](NC(=O)c2nccc(OC)c2OCOC(C)=O)C(=O)O[C@@H](C)[C@@H]1Oc1ccccc1 [Compound F136] , system Mycosphaerella graminicola; Anamorph: Septoria tritici: what pest or weed control at 100 ppm was measured?
## Output 80 to 100%

## Input Please state recorded pest or weed control at 100 ppm (tested on Mycosphaerella graminicola; Anamorph: Septoria tritici) of CCCO[C@@H]1[C@@H](Cc2ccc(OC)cc2)CCC[C@H](NC(=O)c2nccc(OC)c2OCOC(C)=O)C(=O)O[C@H]1C [Compound F119]
## Output 80 to 100%

## Input Recall the recorded pest or weed control at 100 ppm for COc1ccnc(C(=O)N[C@H]2CCC[C@H](CC3CCCC3)[C@@H](OCC3CC3)[C@H](C)OC2=O)c1O [Compound F31] with Mycosphaerella graminicola; Anamorph: Septoria tritici and state it.
## Output 80 to 100%

## Input So what pest or weed control at 100 ppm did COc1ccnc(C(=O)N[C@H]2CCC[C@H](CC3CCCCC3)[C@@H](OCC3CC3)[C@H](C)OC2=O)c1OCOC(C)=O [Compound F97] get with Mycosphaerella graminicola; Anamorph: Septoria tritici?
## Output 80 to 100%

## Input Please state recorded pest or weed control at 100 ppm (tested on Mycosphaerella graminicola; Anamorph: Septoria tritici) of COc1ccnc(C(=O)N[C@H]2CCC[C@H](CCOc3ccccc3)[C@@H](OCC3CC3)[C@H](C)OC2=O)c1OC(C)=O [Compound F84]
## Output 80 to 100%

## Input // fetch Mycosphaerella graminicola; Anamorph: Septoria tritici pest or weed control at 100 ppm for CCOCC(=O)OCOc1c(OC)ccnc1C(=O)N[C@H]1CCC[C@H](Cc2ccc(F)cc2)[C@@H](OC(=O)C(C)C)[C@H](C)OC1=O [Compound F171]
## Output 80 to 100%

## Input Which measured pest or weed control at 100 ppm belongs to COc1ccnc(C(=O)N[C@H]2CCC[C@H](CCF)[C@@H](OCC(C)C)[C@H](C)OC2=O)c1OCOC(C)=O [Compound F128] , tested on Mycosphaerella graminicola; Anamorph: Septoria tritici?
## Output 80 to 100%

## Input Query for Mycosphaerella graminicola; Anamorph: Septoria tritici: what pest or weed control at 100 ppm does the record show for COc1ccnc(C(=O)N[C@H]2CCC[C@H](CC(F)F)[C@@H](Oc3ccccc3)[C@H](C)OC2=O)c1OC(C)=O [Compound F82] ?
## Output 80 to 100%

## Input Notebook entry, Mycosphaerella graminicola; Anamorph: Septoria tritici assay: pest or weed control at 100 ppm of COc1ccnc(C(=O)N[C@H]2CCC[C@H](CCC(C)C)[C@@H](Oc3ccccc3)[C@H](C)OC2=O)c1OCOC(=O)C(C)C [Compound F147] = ?
## Output 80 to 100%

## Input API: value(readout= pest or weed control at 100 ppm, system= Mycosphaerella graminicola; Anamorph: Septoria tritici, query= COc1ccnc(C(=O)N[C@H]2CCC[C@H](Cc3ccc(F)cc3)[C@@H](OCC(C)C)[C@H](C)OC2=O)c1O [Compound F14] )
## Output 80 to 100%

## Input What measured pest or weed control at 100 ppm is associated with COc1ccnc(C(=O)N[C@H]2CCC[C@H](CC3CCCC3)[C@@H](Oc3ccccc3)[C@H](C)OC2=O)c1OCOC(C)=O [Compound F115] on Mycosphaerella graminicola; Anamorph: Septoria tritici?
## Output 80 to 100%

## Input For the record COc1ccnc(C(=O)N[C@H]2CCC[C@H](CC3CCCC3)[C@@H](Oc3ccccc3)[C@H](C)OC2=O)c1OC(C)=O [Compound F71] , what value of pest or weed control at 100 ppm is listed for Mycosphaerella graminicola; Anamorph: Septoria tritici?
## Output 80 to 100%

---

System: Uncinula necator
Assay: Grape Powdery Mildew (UNCINE) disease control
Type: in vivo
Settings: Erysiphe necator, topical, 24 h, 1 Day Protectant, read-out: Disease Control UNCINE 1 DP
Experimental: Technical grades of materials were dissolved in acetone, which were then mixed with nine volumes of water containing 110 ppm Triton X-100. The fungicide solutions were applied onto wheat seedlings using an automated booth sprayer to run-off. […] All fungicides were evaluated using the aforementioned method for their activity vs. all target diseases. […] Percent disease control was calculated using the ratio of disease severity on treated plants relative to untreated plants. […]
value kind: pest or weed control at 100 ppm

## Input Given the compound `CCCO[C@@H]1[C@@H](Cc2ccccc2)CCC[C@H](NC(=O)c2nccc(OC)c2OC(=O)CCOC)C(=O)O[C@H]1C` , what is its reported pest or weed control at 100 ppm?
## Output 80 to 100%

## Input Data request, read-out pest or weed control at 100 ppm, for `COc1ccnc(C(=O)N[C@H]2CCC[C@H](Cc3ccccc3)[C@@H](OC3CCCC3)[C@H](C)OC2=O)c1OCOC(C)=O`
## Output 80 to 100%

## Input I would be grateful if you could share the reported pest or weed control at 100 ppm for `COc1ccnc(C(=O)N[C@H]2CCC[C@H](Cc3ccc(F)cc3F)[C@@H](OCC(C)C)[C@H](C)OC2=O)c1OCOC(C)=O` .
## Output 80 to 100%

## Input # query: pest or weed control at 100 ppm of entry `CC[C@H]1CCC[C@H](NC(=O)c2nccc(OC)c2OC(C)=O)C(=O)O[C@@H](C)[C@@H]1Oc1ccccc1`
## Output 80 to 100%

## Input What does the record list as pest or weed control at 100 ppm for `COc1ccnc(C(=O)N[C@H]2CCC[C@H](Cc3ccc(F)cc3)[C@@H](OCC(C)C)[C@H](C)OC2=O)c1OCOC(C)=O` ?
## Output 0 to 80%

## Input // returns reported pest or weed control at 100 ppm for input `COc1ccnc(C(=O)N[C@H]2CCC[C@H](CCF)[C@@H](OCC(C)C)[C@H](C)OC2=O)c1OCOC(C)=O`
## Output 80 to 100%
